target: hCGRP receptor (CALCRL:RAMP1) (Homo sapiens, UniProt O60894+Q16602)
Construct: host or cells: GeneBLAzer CALCRL:RAMP1-CRE-bla Freestyle 293F
Sequence (Q16602 23-461): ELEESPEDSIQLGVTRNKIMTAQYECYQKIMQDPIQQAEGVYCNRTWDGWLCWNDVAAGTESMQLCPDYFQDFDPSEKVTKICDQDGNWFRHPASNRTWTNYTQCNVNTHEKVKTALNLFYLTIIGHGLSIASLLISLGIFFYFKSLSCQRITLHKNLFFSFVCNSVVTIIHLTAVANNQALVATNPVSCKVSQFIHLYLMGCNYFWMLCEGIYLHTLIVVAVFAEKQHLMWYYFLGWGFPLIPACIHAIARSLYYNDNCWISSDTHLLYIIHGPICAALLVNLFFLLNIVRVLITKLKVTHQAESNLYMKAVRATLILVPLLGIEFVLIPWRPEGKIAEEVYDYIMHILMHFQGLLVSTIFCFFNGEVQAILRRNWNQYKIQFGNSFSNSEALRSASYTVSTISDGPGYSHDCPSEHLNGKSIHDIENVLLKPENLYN
Sequence (O60894 27-148): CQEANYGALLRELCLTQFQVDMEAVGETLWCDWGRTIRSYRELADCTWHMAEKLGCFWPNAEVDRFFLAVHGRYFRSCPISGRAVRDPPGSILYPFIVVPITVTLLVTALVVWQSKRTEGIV
assay_notes: CGRP receptor antagonist activity measured by cAMP assay (HTRF)
Format: cell-based
settings: % MPE: percent of the maximal possible effect; agonist human α-CGRP; read-out: hCGRP-R Efficacy Antag (%) Ave
Numbered stars: 1 amine (or outer) side, 2 acyl side, 3 side chain; on linkers, the order of the positions; unused ones are H or OH. Bridge positions count the residues as written; N and C are the ends. Square brackets hold non-standard residues; d marks the D form. Peptide text beside a SMILES is read from it. * marks the point of attachment. Phe(3-CH2NH2) = O=C([C@H](Cc1cccc(CN[*:3])c1)N[*:1])[*:2]; Phe(4-NHCONH2) = NC(=O)Nc1ccc(C[C@H](N)C(=O)O)cc1; Phe(3-CONH2) = NC(=O)c1cccc(C[C@H](N)C(=O)O)c1; Phe(2-CONH2) = NC(=O)c1ccccc1C[C@H](N)C(=O)O; Orn(iPr) = CC(C)NCCC[C@H](N)C(=O)O; Benzoyl(4-F) = O=C(c1ccc(F)cc1)*; Oxazole2carbonyl = O=C(c1ncco1)*; 3Pal = N[C@@H](Cc1cccnc1)C(=O)O; ΔPro = O=C(O)[C@@H]1C=CCN1; Dap = NC[C@H](N)C(=O)O

compound	Emax [%]
CC(C)NCCC[C@@H]1NC(=O)[C@@H](NC(=O)[C@H](Cc2ccccc2C(N)=O)NC(=O)[C@H](NC(=O)c2ncco2)C(C)C)CSSC[C@@H](C(=O)N[C@@H](Cc2cccnc2)C(N)=O)NC(=O)[C@H](Cc2ccc(NC(N)=O)cc2)NC(=O)[C@@H]2C=CCN2C(=O)CNC(=O)[C@H](C(C)C)NC(=O)[C@H](CC(=O)O)NC1=O [Compound 60] (Oxazole2carbonyl-[dV][Phe(2-CONH2)]C[Orn(iPr)]DVG[ΔPro][Phe(4-NHCONH2)]C[3Pal]-NH2; disulfide 3-10)	100
CC(C)[C@@H]1NC(=O)[C@H](CC(=O)O)NC(=O)[C@H](CCCNC(=N)N)NC(=O)[C@@H](NC(=O)[C@H](Cc2cccc(CN)c2)NC(=O)[C@H](NC(=O)c2ncco2)C(C)C)CSSC[C@@H](C(=O)N[C@@H](Cc2cccnc2)C(N)=O)NC(=O)[C@H](Cc2cccc(C(N)=O)c2)NC(=O)[C@@H]2C=CCN2C(=O)CNC1=O [Compound 23] (Oxazole2carbonyl-[dV][Phe(3-CH2NH2)]CRDVG[ΔPro][Phe(3-CONH2)]C[3Pal]-NH2; disulfide 3-10)	100
CC(C)[C@@H]1NC(=O)[C@H](CC(=O)O)NC(=O)[C@H](CN)NC(=O)[C@@H](NC(=O)[C@H](Cc2ccc(O)cc2)NC(=O)[C@H](NC(=O)c2ccc(F)cc2)C(C)C)CSSC[C@@H](C(=O)N[C@@H](Cc2cccnc2)C(N)=O)NC(=O)[C@H](Cc2ccc(O)cc2)NC(=O)[C@@H]2CCCN2C(=O)CNC1=O [Compound 7] ({Benzoyl(4-F)}-[dV]YC[Dap]DVGPYC[3Pal]-NH2; disulfide 3-10)	100

---

target: hCGRP receptor (CALCRL:RAMP1) (Homo sapiens, UniProt O60894+Q16602)
Construct: host or cells: GeneBLAzer CALCRL:RAMP1-CRE-bla Freestyle 293F
assay_notes: CGRP receptor antagonist activity measured by cAMP assay (HTRF)
Format: cell-based
settings: GeneBLAzer CALCRL:RAMP1-CRE-bla Freestyle 293F cells; agonist human α-CGRP; 30 minutes; read-out: hCGRP-R IC50 Ave
Bridge positions count the residues as written; N and C are the ends. Square brackets hold non-standard residues; d marks the D form. Peptide text beside a SMILES is read from it. * marks the point of attachment. Triazol3yl(1,2,4-5-NH2) = Nc1nc(*)n[nH]1; 3Pal = N[C@@H](Cc1cccnc1)C(=O)O; X4 = O=C(c1ncccc1[N+](=O)[O-])*; Picolinoyl = O=C(c1ccccn1)*; Orn = NCCC[C@H](N)C(=O)O; X11 = O=C(c1ncccc1Cl)*
observable: IC50 (pM)

compound	observable	measured
CC(C)[C@@H]1NC(=O)[C@H](CC(=O)O)NC(=O)[C@H](CCCNc2nc(N)n[nH]2)NC(=O)[C@@H](NC(=O)[C@H](Cc2ccc(O)cc2)NC(=O)[C@H](NC(=O)c2ccccn2)C(C)C)CSSC[C@@H](C(=O)N[C@@H](Cc2cccnc2)C(N)=O)NC(=O)[C@H](Cc2ccccc2)NC(=O)[C@@H]2CCCN2C(=O)CNC1=O [Compound 27] (Picolinoyl-[dV]YC[Orn](Triazol3yl(1,2,4-5-NH2))DVGPFC[3Pal]-NH2; disulfide 3-10)	IC50	150
CC(C)[C@@H]1NC(=O)[C@H](CC(=O)O)NC(=O)[C@H](CCCNC(=N)N)NC(=O)[C@@H](NC(=O)[C@H](Cc2ccc(O)cc2)NC(=O)[C@H](NC(=O)c2ncccc2[N+](=O)[O-])C(C)C)CSSC[C@@H](C(=O)N[C@@H](Cc2cccnc2)C(N)=O)NC(=O)[C@H](Cc2ccccc2)NC(=O)[C@@H]2CCCN2C(=O)CNC1=O [Compound 50] (X4-[dV]YCRDVGPFC[3Pal]-NH2; disulfide 3-10)	IC50	180
CC(C)[C@@H]1NC(=O)[C@H](CC(=O)O)NC(=O)[C@H](CCCNC(=N)N)NC(=O)[C@@H](NC(=O)[C@H](Cc2ccc(O)cc2)NC(=O)[C@H](NC(=O)c2ncccc2Cl)C(C)C)CSSC[C@@H](C(=O)N[C@@H](Cc2cccnc2)C(N)=O)NC(=O)[C@H](Cc2ccccc2)NC(=O)[C@@H]2CCCN2C(=O)CNC1=O [Compound 51] (X11-[dV]YCRDVGPFC[3Pal]-NH2; disulfide 3-10)	IC50	140

src = patent US9969775B2
